IC50 values for the compounds below.
- assay.target: DQB1*06:02
- protocol: Peptide binding to HLA-DQ allele, competition assay
- Source text: Peptide binding to MHC-II requires anchor residues in certain positions and thus can be predicted using computer algorithms. Affinity can be measured experimentally using a competition assay (1). Both are excellent screening tools. However, affinity must be measured separately for each MHC-II allele. Humans express molecules encoded in four different MHC-II loci, denominated HLA-DRB1, DRB3/4/5, DP and DQ. […]

Known IC50 results, listed for orientation:
compound	IC50
CC(C)C[C@H](NC(=O)[C@H](CC(C)C)NC(=O)[C@H](CC(C)C)NC(=O)[C@H](CC(C)C)NC(=O)[C@H](C)NC(=O)[C@@H]1CCCN1C(=O)[C@H](CC(C)C)NC(=O)[C@H](C)NC(=O)[C@H](CC(C)C)NC(=O)[C@H](CC(C)C)NC(=O)[C@H](C)NC(=O)[C@H](CC(C)C)NC(=O)[C@H](CC(C)C)NC(=O)[C@H](C)NC(=O)[C@@H]1CCCN1)C(=O)O [Peptide 3563.001]	24.2 µM
CC[C@H](C)[C@H](NC(=O)[C@@H](NC(=O)[C@@H](N)CC(C)C)[C@@H](C)CC)C(=O)N[C@@H](CC(N)=O)C(=O)N[C@@H](Cc1c[nH]c2ccccc12)C(=O)N[C@@H](CC(C)C)C(=O)N[C@@H](CCC(N)=O)C(=O)N[C@@H](CCC(=O)O)C(=O)N[C@@H](C)C(=O)N[C@@H](CC(C)C)C(=O)N[C@@H](CO)C(=O)N[C@@H](CO)C(=O)N[C@@H](C)C(=O)N[C@@H](CO)C(=O)N[C@@H](CC(C)C)C(=O)O [Peptide 3563.0015]	1.95 µM
CC[C@H](C)[C@H](NC(=O)[C@H](CC(=O)O)NC(=O)[C@H](CC(C)C)NC(=O)[C@H](CC(C)C)NC(=O)[C@H](CCC(=O)O)NC(=O)[C@@H](N)CCC(N)=O)C(=O)N[C@@H](C)C(=O)N[C@@H](CC(N)=O)C(=O)N[C@@H](Cc1ccc(O)cc1)C(=O)N[C@@H](CC(C)C)C(=O)N[C@@H](CCSC)C(=O)N[C@@H](CCC(=O)O)C(=O)N[C@@H](CCC(N)=O)C(=O)N[C@H](C(=O)N[C@@H](CCC(N)=O)C(=O)O)[C@@H](C)CC [Peptide 3563.0003]	2.43 µM
CC[C@H](C)[C@H](NC(=O)[C@H](CCCCN)NC(=O)CN)C(=O)N[C@@H](CC(=O)O)C(=O)N[C@@H](Cc1ccccc1)C(=O)N[C@@H](CC(C)C)C(=O)N[C@@H](CC(N)=O)C(=O)N[C@@H](CC(N)=O)C(=O)N[C@@H](Cc1ccc(O)cc1)C(=O)N[C@@H](C)C(=O)N[C@@H](CC(C)C)C(=O)N[C@@H](Cc1ccccc1)C(=O)N[C@@H](CC(C)C)C(=O)N[C@@H](CO)C(=O)N1CCC[C@H]1C(=O)O [Peptide 3563.0019]	0.495 µM
CC[C@H](C)[C@H](NC(=O)[C@H](CC(N)=O)NC(=O)[C@H](CCCCN)NC(=O)[C@H](CC(C)C)NC(=O)[C@H](Cc1ccccc1)NC(=O)[C@H](CCCNC(=N)N)NC(=O)[C@H](CC(C)C)NC(=O)[C@H](Cc1c[nH]cn1)NC(=O)CNC(=O)[C@@H](N)CCC(=O)O)C(=O)N[C@H](C(=O)N[C@@H](CC(C)C)C(=O)N1CCC[C@H]1C(=O)N[C@H](C(=O)N[C@@H](Cc1ccc(O)cc1)C(=O)O)C(C)C)[C@@H](C)CC [Peptide 3563.0021]	6.14 µM

# next compound below
// IC50 lookup, key: CC[C@H](C)[C@H](N)C(=O)N[C@@H](CC(C)C)C(=O)N[C@@H](Cc1ccccc1)C(=O)N[C@@H](CO)C(=O)N[C@@H](Cc1ccc(O)cc1)C(=O)N[C@@H](Cc1ccccc1)C(=O)N[C@@H](CCC(N)=O)C(=O)N[C@@H](CC(=O)O)C(=O)N[C@@H](CC(C)C)C(=O)N[C@H](C(=O)N[C@H](C(=O)N[C@H](C(=O)N[C@@H](CC(C)C)C(=O)N1CCC[C@H]1C(=O)N[C@@H](Cc1ccccc1)C(=O)O)[C@@H](C)O)[C@@H](C)CC)C(C)C [Peptide 3563.0023]
12.2 µM

* * *

As shown below, each of these molecules has a reported IC50 value.
- assay.target: DPB1*04:01 (Homo sapiens)

Suppose we examine the molecule CC(C)C[C@H](NC(=O)[C@H](CC(C)C)NC(=O)[C@H](CC(C)C)NC(=O)[C@H](CC(C)C)NC(=O)[C@H](C)NC(=O)[C@@H]1CCCN1C(=O)[C@H](CC(C)C)NC(=O)[C@H](C)NC(=O)[C@H](CC(C)C)NC(=O)[C@H](CC(C)C)NC(=O)[C@H](C)NC(=O)[C@H](CC(C)C)NC(=O)[C@H](CC(C)C)NC(=O)[C@H](C)NC(=O)[C@@H]1CCCN1)C(=O)O [Peptide 3563.001] ; what IC50 value has been reported?
14000 nM

If you can, please state the reported IC50 value of CC[C@H](C)[C@H](NC(=O)[C@H](Cc1ccc(O)cc1)NC(=O)[C@H](CCC(N)=O)NC(=O)[C@H](Cc1c[nH]cn1)NC(=O)[C@@H](NC(=O)[C@@H](N)CCC(N)=O)[C@@H](C)CC)C(=O)N[C@@H](CCSC)C(=O)N[C@@H](C)C(=O)N[C@@H](CC(C)C)C(=O)N[C@@H](CCCNC(=N)N)C(=O)N[C@@H](CCC(=O)O)C(=O)N[C@@H](CCC(=O)O)C(=O)N[C@@H](Cc1ccc(O)cc1)C(=O)N[C@@H](Cc1ccccc1)C(=O)N[C@@H](CC(=O)O)C(=O)O [Peptide 3563.0027] .
817 nM

Return reported IC50; argument: CC[C@H](C)[C@H](NC(=O)[C@H](C)NC(=O)[C@H](CCCCN)NC(=O)[C@H](Cc1ccccc1)NC(=O)[C@@H](NC(=O)[C@H](CCC(=O)O)NC(=O)[C@@H](N)CCC(N)=O)C(C)C)C(=O)N[C@@H](CCC(N)=O)C(=O)N[C@@H](CO)C(=O)N[C@@H](CC(C)C)C(=O)N[C@@H](CCCCN)C(=O)N[C@H](C(=O)N[C@H](C(=O)N[C@@H](CCC(=O)O)C(=O)N[C@H](C(=O)O)C(C)C)[C@@H](C)O)[C@@H](C)O [Peptide 3563.0024]
16 nM

* * *

- assay.target: DQB1*05:01
- protocol: Peptide binding to HLA-DQ allele, competition assay
- Design: species or system human
No end group written: not given here.
Items are presented alongside their recorded IC50.
Write down the numeric answer in nM and omit the unit.

>>> print(df.to_string())
                              sequence  assay_target  measurement_label  unit_name  value_observed
0  TLTAFGFASADLLEI [Peptide 3563.0005]    DQB1*05:01               IC50         nM             118

Turning now to a further sequence:
What does the data say about its IC50? Entry: LSQLTYMIQFDQYI [Peptide 3563.0012]
28

* * *

- assay.target: DPB1*14:01
- protocol: Peptide binding to HLA-DP allele, competition assay
# label = satisfied if IC50 < 7 µM else not satisfied

Reference set (5 entries):
compound	assay.target	label
CSCC[C@H](NC(=O)[C@H](CC(C)C)NC(=O)[C@H](Cc1ccc(O)cc1)NC(=O)[C@H](C)NC(=O)[C@H](C)NC(=O)[C@H](CC(C)C)NC(=O)[C@H](CCCNC(=N)N)NC(=O)[C@H](CCCCN)NC(=O)[C@@H](N)CC(=O)O)C(=O)N[C@@H](CC(C)C)C(=O)N[C@@H](CCSC)C(=O)N[C@@H](CCCNC(=N)N)C(=O)N[C@@H](CO)C(=O)N1CCC[C@H]1C(=O)N[C@@H](CO)C(=O)O [Peptide 3563.0004]	DPB1*14:01	satisfied
CSCC[C@H](NC(=O)[C@@H](NC(=O)[C@H](Cc1ccccc1)NC(=O)[C@@H]1CCCN1C(=O)[C@H](C)NC(=O)[C@H](CCSC)NC(=O)[C@@H](NC(=O)[C@H](CO)NC(=O)[C@H](CCCNC(=N)N)NC(=O)[C@H](Cc1ccccc1)NC(=O)[C@@H](NC(=O)[C@H](CC(N)=O)NC(=O)[C@H](CO)NC(=O)[C@H](Cc1ccccc1)NC(=O)[C@@H](N)Cc1c[nH]cn1)C(C)C)C(C)C)[C@@H](C)O)C(=O)O [Peptide 3563.0010]	DPB1*14:01	satisfied
CC(C)C[C@H](NC(=O)[C@H](CC(C)C)NC(=O)[C@H](Cc1ccccc1)NC(=O)[C@H](CCCCN)NC(=O)[C@H](CO)NC(=O)[C@H](Cc1ccc(O)cc1)NC(=O)[C@H](CC(C)C)NC(=O)[C@@H](N)CCC(N)=O)C(=O)N[C@@H](CCCCN)C(=O)N[C@@H](C)C(=O)N[C@@H](CCC(=O)O)C(=O)N1CCC[C@H]1C(=O)N[C@@H](CC(C)C)C(=O)N[C@@H](C)C(=O)N[C@@H](Cc1ccccc1)C(=O)O [Peptide 3563.0011]	DPB1*14:01	satisfied
CC[C@H](C)[C@H](NC(=O)[C@H](CC(C)C)NC(=O)[C@H](Cc1ccc(O)cc1)NC(=O)[C@@H](NC(=O)[C@H](Cc1ccccc1)NC(=O)[C@@H](N)CCCCN)[C@@H](C)O)C(=O)N[C@@H](CC(N)=O)C(=O)N[C@@H](Cc1ccc(O)cc1)C(=O)N[C@H](C(=O)N[C@@H](CCC(N)=O)C(=O)N[C@@H](CC(=O)O)C(=O)N[C@@H](CCC(=O)O)C(=O)N[C@H](C(=O)N[C@@H](CC(N)=O)C(=O)N[C@H](C(=O)O)[C@@H](C)O)[C@@H](C)CC)[C@@H](C)CC [Peptide 3563.0025]	DPB1*14:01	not satisfied
CC[C@H](C)[C@H](NC(=O)[C@H](CCCCN)NC(=O)CN)C(=O)N[C@@H](CC(=O)O)C(=O)N[C@@H](Cc1ccccc1)C(=O)N[C@@H](CC(C)C)C(=O)N[C@@H](CC(N)=O)C(=O)N[C@@H](CC(N)=O)C(=O)N[C@@H](Cc1ccc(O)cc1)C(=O)N[C@@H](C)C(=O)N[C@@H](CC(C)C)C(=O)N[C@@H](Cc1ccccc1)C(=O)N[C@@H](CC(C)C)C(=O)N[C@@H](CO)C(=O)N1CCC[C@H]1C(=O)O [Peptide 3563.0019]	DPB1*14:01	satisfied

# evaluate next
Identify whether the compound CC[C@H](C)[C@H](NC(=O)[C@H](CCC(=O)O)NC(=O)[C@@H](N)CC(=O)O)C(=O)N[C@@H](CC(N)=O)C(=O)N[C@H](C(=O)N[C@H](C(=O)N[C@@H](Cc1ccccc1)C(=O)N[C@@H](CO)C(=O)N[C@@H](CC(=O)O)C(=O)N[C@@H](Cc1ccc(O)cc1)C(=O)N[C@H](C(=O)N1CCC[C@H]1C(=O)N[C@@H](Cc1ccc(O)cc1)C(=O)N[C@H](C(=O)N[C@@H](Cc1ccccc1)C(=O)O)C(C)C)[C@@H](C)CC)[C@@H](C)CC)[C@@H](C)O [Peptide 3563.0026] records IC50 below 7 µM.
not satisfied
